Values compiled from ChEMBL document CHEMBL1149189.

Ferriprotoporphyrin IX Log K data
Keep the answer to the number alone.

[[record]]
smilesstructure = "CCN(CC)CCN(CCN(CC)CC)C(=S)NC(=O)c1ccccc1"
quantitativereadout = 1.93


So the reported Log K for Cc1ccnc2c1ccc1cccnc12 , on Ferriprotoporphyrin IX, turned out to be 3.22

So the reported Log K for Clc1cc2cccnc2c2ncccc12 , on Ferriprotoporphyrin IX, turned out to be 3.01

So the reported Log K for O=[N+]([O-])c1cc2cccnc2c2ncccc12 , on Ferriprotoporphyrin IX, turned out to be 2.88

So the reported Log K for Cc1cnc2c(ccc3c(C)c(C)cnc32)c1C , on Ferriprotoporphyrin IX, turned out to be 3.32

So the reported Log K for Cc1cc2cccnc2c2ncccc12 , on Ferriprotoporphyrin IX, turned out to be 2.93
